Target: T1, human PILRA, c-term His-Avi tag (human, UniProt Q9UKJ1 20-197, limits assumed)
T1 construct: not shown: C-terminal His-Avi tag
T1 sequence (Q9UKJ1 20-197 limits assumed): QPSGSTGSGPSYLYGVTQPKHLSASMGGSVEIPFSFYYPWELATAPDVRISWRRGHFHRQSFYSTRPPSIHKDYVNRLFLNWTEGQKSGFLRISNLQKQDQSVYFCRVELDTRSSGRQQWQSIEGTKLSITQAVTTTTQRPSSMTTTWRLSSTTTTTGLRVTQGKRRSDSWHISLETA
Assay: SPR (Biacore), antibody captured, PILRA as analyte
Experimental: Experiments were performed to determine the kinetics of anti-PILRA antibody binding to human […]. The assay is depicted in FIG. 6. A rabbit anti-PILRA was used as a positive control, and H1 LALAPS was used as a negative control. Human PILRA (human PILRA, c-term His-Avi tag, 0.68 mg/mi) was used as the antigen. The running buffer was HBSTE/0.5% BSA, pH 7.4, and the regeneration solution was 10 mM glycine-HCl (pH 2.1). […]
Readout kind: kon (M⁻¹ s⁻¹)
Numbers only, in M⁻¹ s⁻¹.

Past entries and their recorded results:
Any idea what kon was measured for C3 (antibody, V domains shown, first hybridoma campaign) VH: EVHLQQSGPELVKPGASVKISCKASGYTFTDYYLNWVKLSLGKSLEWIGDINPNDGDTSYNQTFKGKATLTVDKSSSTAYMELRSLTSEDSAVYYCARRASSYYSNYGWYFDVWGTGTTVTVSS VL: DILLTQSPAILSVSPGERVSFSCRASQSIGTSIHWYQQRTNGSPRLLIKFASESISGIPSRFSGSGSGTDFTLSINTVESEDIGDYYCQESNSWPTTFGAGTKLELK ?
510000

And what about the binder E19 (antibody, V domains shown, phage campaign; same VH/VL as A13) VH: QVQLVQSGAEVKKPGSSVKVSCKASGYLFSDYAMNWVRQAPGQGLEWVGWIIPNSGGTKFAQTFQGRVTITADESTSTAYMELSSLRSEDTAVYYCAREHGVVPADHYYYGMDVWGQGTTVTVSS VL: EIVMTQSPATLSVSPGERATLSCRASQSISSSYLAWYQQKPGQAPRLLIYGASTRATGIPARFSGSGSGTEFTLTISSLQSEDFAVYYCQQYGRFPWTFGQGTKVEIK ?
100000

Also, D5 (antibody, V domains shown, second hybridoma campaign) VH: EVKLDETGGGLVQPGRPMKLSCVASGFTFSDYWMNWVRQSPEKGLEWVAQIRNKLYNYETYYSDSVKGRFTISRDDSKSSVYLQMNNLRAEDMGIYYCTVGLAMDYWGQGTSVTVSS VL: DIQMTQSSSSFSVSLGDRVTITCKASEDIYNRLAWYQQKPGNAPRLLISGATSLETGVPSRFSGSGSGKEYTLNITSLQTEDVATYYCQQYWSTPTFGGGTKLEIK please.
37000

Note, next up: A10 (antibody, V domains shown, phage campaign) VH: QVQLVQSGAEVKKPGASVKVSCKASGYTFTDYYIHWVRQAPGQGLEWMGWMNPNSGNTGYAQKFQGRVTMTRDTSTSTVYMELSSLRSEDTAVYYCAREGSSGWYVDYWGQGTLVTVSS VL: DIQMTQSPSSLSASVGDRVTITCQASQDISQFLNWYQQKPGKAPKLLIYDAYSLQSGVPSRFSGSGSGTDFTLTISSLQPEDFATYYCQQANSFPLTFGQGTKVEIK
130000

Turning now to a further record.
Which kon is listed for A14 (antibody, V domains shown, phage campaign) VH: QVQLVQSGAEVKKPGASVKVSCKASGYTFTSYYMYWVRQAPGQGLEWMGWMNPNSGNTGFAQKFQGRVTMTRDTSTSTVYMELSSLRSEDTAVYYCASGYYDSWSGETDYGMDVWGQGTTVTVSS VL: DIQMTQSPSSLSASVGDRVTITCRASQSISSYLNWYQQKPGKAPKLLIYDASTLESGVPSRFSGSGSGTDFTLTISSLQPEDFATYYCQQSYKTPYTFGQGTKLEIK ?
99000
